PROTOCOL_DETAILS: Human pregnane X receptor (PXR) small molecule agonists, qHTS cell viability counter screen (AID 1346977); also: nearly all actives have a fitted effect of over 50% in size
MEASUREMENT_SETUP: PXR-Luc HepG2 viability, CellTiter-Fluor, 24 h; series mostly up to 92.4 µM
Records with an inconclusive call do not appear. The source made the active and inactive calls. Calls follow the shape of the dose curve; as a rule, active = well fitted cell-killing curve with a large enough effect in the repeat runs; inconclusive = weak or mixed curves, or effect the other way; inactive = flat fitted curve, though single readings scatter.
Outcome codes: Yes for active, No for inactive

{"MOLECULE": "COC(=O)/C=C/c1ccccc1", "CLASS": "No"}
{"MOLECULE": "CCC(=O)/C=C/C1C(C)=CCCC1(C)C (stereo unspecified)", "CLASS": "No"}
{"MOLECULE": "NC12CC3CC(CC(C3)C1)C2", "CLASS": "No"}
{"MOLECULE": "CC(C)(C)NCC(O)c1cc(O)cc(O)c1 (stereo unspecified)", "CLASS": "No"}
{"MOLECULE": "CCc1ccc(C(c2ccc(CC)cc2)C(Cl)Cl)cc1", "CLASS": "No"}
{"MOLECULE": "CO[Si](OC)(OC)c1ccccc1", "CLASS": "No"}
{"MOLECULE": "O=C(Oc1ccccc1)c1ccccc1O", "CLASS": "No"}
{"MOLECULE": "CCC(CO)(CO)COCC(CC)(CO)CO", "CLASS": "No"}
{"MOLECULE": "CCn1cc(C(=O)O)c(=O)c2cc(F)c(N3CCNC(C)C3)c(F)c21 (stereo unspecified)", "CLASS": "No"}
{"MOLECULE": "Nc1nc2ccccc2[nH]1", "CLASS": "No"}
{"MOLECULE": "C=CC(=O)OCCCCCCOC(=O)C=C", "CLASS": "No"}
{"MOLECULE": "CCN(CC)C(=O)Nc1ccc(OCC(O)CNC(C)(C)C)c(C(C)=O)c1 (stereo unspecified)", "CLASS": "No"}
{"MOLECULE": "CC[C@@H](N)CO", "CLASS": "No"}
{"MOLECULE": "CC(C)CCOC(=O)c1ccc(N(C)C)cc1", "CLASS": "No"}
{"MOLECULE": "CC(C)(C)NC(=O)[C@@H]1CN(Cc2cccnc2)CCN1C[C@@H](O)C[C@@H](Cc1ccccc1)C(=O)N[C@H]1c2ccccc2C[C@H]1O", "CLASS": "No"}
{"MOLECULE": "C=CS(=O)(=O)O", "CLASS": "No"}
{"MOLECULE": "c1ccc2n[nH]nc2c1", "CLASS": "No"}
{"MOLECULE": "NCCCCCC(=O)O", "CLASS": "No"}
{"MOLECULE": "[Cl][In]([Cl])[Cl]", "CLASS": "No"}
{"MOLECULE": "CC(=O)CC(=O)Nc1ccc2[nH]c(=O)[nH]c2c1", "CLASS": "No"}
{"MOLECULE": "CC(=O)N[C@@H](CS)C(=O)O", "CLASS": "No"}
{"MOLECULE": "CC(=O)C1=C(C)[C@@H]2C[C@@]3(C1)[C@H](C)CC[C@H]3C2(C)C", "CLASS": "No"}
{"MOLECULE": "Cc1cc(C(C)(C)C)c(O)c(C(C)(C)C)c1", "CLASS": "No"}
{"MOLECULE": "CNC1(C)C2CCC(C2)C1(C)C (stereo unspecified)", "CLASS": "No"}
{"MOLECULE": "O=C(Cl)c1cccc(C(=O)Cl)c1", "CLASS": "No"}
{"MOLECULE": "Cc1cccc(O)c1C", "CLASS": "No"}
{"MOLECULE": "Clc1ccc2c(c1)C(N1CCNCC1)=Nc1ccccc1O2", "CLASS": "Yes"}
{"MOLECULE": "CCCCCC(=O)O[C@]1(C(C)=O)CC[C@H]2[C@@H]3CCC4=CC(=O)CC[C@]4(C)[C@H]3CC[C@@]21C", "CLASS": "Yes"}
{"MOLECULE": "CC(C)(C)c1cc(C(C)(C)C)c(O)c(C(C)(C)C)c1", "CLASS": "No"}
{"MOLECULE": "CC(N)=O", "CLASS": "No"}
{"MOLECULE": "NNCCc1ccccc1", "CLASS": "No"}
{"MOLECULE": "NC(=Nc1ccccc1)Nc1ccccc1", "CLASS": "Yes"}
{"MOLECULE": "CC(=O)OCCOCCOCCOC(C)=O", "CLASS": "No"}
{"MOLECULE": "O=C(OCc1ccccc1)c1ccc(O)cc1", "CLASS": "No"}
{"MOLECULE": "CC(C(O)c1ccc(O)cc1)N1CCC(Cc2ccccc2)CC1 (stereo unspecified)", "CLASS": "No"}
{"MOLECULE": "c1ccc2cc3c(ccc4ccccc43)cc2c1", "CLASS": "No"}
